- assay.target: recombinant human KLK5 (human) (UniProt Q9Y337)
- Sequence (Q9Y337 67-293): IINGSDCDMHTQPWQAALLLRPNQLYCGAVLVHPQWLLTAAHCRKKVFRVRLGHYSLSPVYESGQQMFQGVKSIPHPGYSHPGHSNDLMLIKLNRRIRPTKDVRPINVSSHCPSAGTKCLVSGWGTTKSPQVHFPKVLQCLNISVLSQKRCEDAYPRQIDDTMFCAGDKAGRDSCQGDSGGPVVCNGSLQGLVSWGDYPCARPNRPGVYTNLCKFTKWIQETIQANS
- assay.details: pro-KLK7 coupled assay, 5 nM KLK5
measured.quantity: IC50 (nM)
Write the answer as a number in nM, unit excluded.

For orientation, consider the following solved cases.
{"binder": "2B11 (antibody, V domains shown) VH: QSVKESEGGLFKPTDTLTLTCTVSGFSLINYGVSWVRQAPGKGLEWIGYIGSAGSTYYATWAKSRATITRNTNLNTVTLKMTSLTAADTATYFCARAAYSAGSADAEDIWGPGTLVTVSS VL: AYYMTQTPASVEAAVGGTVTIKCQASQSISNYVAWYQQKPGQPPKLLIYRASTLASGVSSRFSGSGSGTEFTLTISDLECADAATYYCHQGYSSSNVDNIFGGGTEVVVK", "IC50 (nM)": 0.86}
{"binder": "9H3 (antibody, V domains shown) VH: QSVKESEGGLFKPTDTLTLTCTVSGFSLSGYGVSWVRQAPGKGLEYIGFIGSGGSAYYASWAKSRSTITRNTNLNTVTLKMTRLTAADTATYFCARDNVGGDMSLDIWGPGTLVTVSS VL: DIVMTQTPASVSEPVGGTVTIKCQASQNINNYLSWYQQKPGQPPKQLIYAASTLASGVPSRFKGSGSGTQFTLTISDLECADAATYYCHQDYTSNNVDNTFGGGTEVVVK", "IC50 (nM)": 1.05}

Let us move to another entry and its IC50.
What value of measured IC50 is listed for 8F5 (antibody, V domains shown) VH: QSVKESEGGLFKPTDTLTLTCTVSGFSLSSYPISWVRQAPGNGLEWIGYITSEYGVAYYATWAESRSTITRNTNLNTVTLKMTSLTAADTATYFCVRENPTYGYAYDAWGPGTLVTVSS VL: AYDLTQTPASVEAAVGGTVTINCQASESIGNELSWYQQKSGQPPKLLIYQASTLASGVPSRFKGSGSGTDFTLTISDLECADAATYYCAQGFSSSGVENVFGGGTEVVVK ?
0.76
